Source listed as ChEMBL document CHEMBL1138708.

# EXPERIMENTAL TARGET: Nitric oxide synthase (inducible and endothelial) (Homo sapiens) (UniProt P35228+P29474)
# ASSAY EXPLANATION: Ratio of inhibitory concentration against Endothelial nitric oxide synthase to Inducible nitric oxide synthase
# Assay type: protein assay
Measured Selectivity determines class: lo: < 4; mid: ≥ 4 and < 10; hi: ≥ 10

Qu. Class for `CC(=N)NCCCC[C@H](N)C(=O)O` ?
Ans. lo

Qu. Class for CCC1CSCCC(N)=N1 (centres undefined) ?
Ans. lo

Qu. Class for CC1CC(N)=NCCS1 (centres undefined) ?
Ans. lo

Qu. Class for CC(C)CC1CSCCC(N)=N1 (centres undefined) ?
Ans. hi

Qu. Class for `CCC[C@@H]1CSCCC(N)=N1` ?
Ans. hi

Qu. Class for CCCC1CSCCC(N)=N1 (centres undefined) ?
Ans. hi

Qu. Class for `CCC[C@H]1CSCCC(N)=N1` ?
Ans. mid

Qu. Class for CCCCC1CSCCC(N)=N1 (centres undefined) ?
Ans. hi

Qu. Class for `NC1=NCCSCC1` ?
Ans. mid

Qu. Class for CC1CSCCC(N)=N1 (centres undefined) ?
Ans. mid

Qu. Class for CC1CN=C(N)CCS1 (centres undefined) ?
Ans. lo

Qu. Class for `NC1=NCCOCC1` ?
Ans. lo

Qu. Class for NC1=NC(CO)CSCC1 (centres undefined) ?
Ans. mid

Qu. Class for `NC1=NCCCSC1` ?
Ans. mid
